Species on record: Homo sapiens
Experiment: Ratio of compound pIC50 to (4aR,4bS,6aS,7S,9aS,9bS,11aR)-N,N-diethyl-1,4a,6a-trimethyl-2-oxohexadecahydro-1H-indeno[5,4-f]quinoline-7-carboxamide pIC50 for human steroid 5alpha-reductase
pIC50 below 7 gives False; pIC50 at or above it gives True.

| structure.notation | qualitative.label |
| --- | --- |
| CCN(CC)C(=O)/C=C1/CC[C@H]2[C@@H]3CC[C@H]4N(C)C(=O)CC[C@]4(C)[C@H]3CC[C@]12C | True |
| CC(=O)[C@H]1CC[C@H]2[C@@H]3CC[C@H]4N(C)C(=O)CC[C@]4(C)[C@H]3CC[C@]12C | False |
| CN1C(=O)CC[C@]2(C)[C@H]3CC[C@@]4(C)[C@@H](CC[C@@]45CCCO5)[C@@H]3CC[C@@H]12 | False |
| CCN(CC)C(=O)[C@H]1CC[C@H]2[C@@H]3CC[C@H]4NC(=O)CC[C@]4(C)[C@H]3CC[C@]12C | True |
| CN1C(=O)CC[C@]2(C)[C@H]3CC[C@]4(C)[C@@H](C(=O)NC(C)(C)C)CC[C@H]4[C@@H]3CC[C@@H]12 | True |
| CC(C)CC(=O)[C@H]1CC[C@H]2[C@@H]3CC[C@H]4N(C)C(=O)CC[C@]4(C)[C@H]3CC[C@]12C | True |
| CCOC(=O)C[C@H]1CC[C@H]2[C@@H]3CC[C@H]4N(C)C(=O)CC[C@]4(C)[C@H]3CC[C@]12C | False |
| CN1C(=O)CC[C@]2(C)[C@H]3CC[C@]4(C)[C@@H](C(=O)N5CCOCC5)CC[C@H]4[C@@H]3CC[C@@H]12 | True |

---

Below, each entry is listed with its recorded pIC50.
Species on record: Homo sapiens
Test: Ratio of compound pIC50 to (4aR,4bS,6aS,7S,9aS,9bS,11aR)-N,N-diethyl-1,4a,6a-trimethyl-2-oxohexadecahydro-1H-indeno[5,4-f]quinoline-7-carboxamide pIC50 for human steroid 5alpha-reductase

| structure.notation | pIC50 |
| --- | --- |
| CN1C(=O)CC[C@]2(C)[C@H]3CC[C@]4(C)[C@@H](C5=NC(C)(C)CO5)CC[C@H]4[C@@H]3CC[C@@H]12 | 5.9 |
| COC(=O)[C@H]1CC[C@H]2[C@@H]3CC[C@H]4NC(=O)CC[C@]4(C)[C@H]3CC[C@]12C | 6.38 |
| CCN(CC)C(=O)[C@@H](C)[C@H]1CC[C@H]2[C@@H]3CC[C@H]4N(C)C(=O)CC[C@]4(C)[C@H]3CC[C@]12C | 5.41 |
| CCN(CC)C(=O)[C@H]1CC[C@H]2[C@@H]3CC[C@H]4N(C)C(=O)[C@@H](F)C[C@]4(C)[C@H]3CC[C@]12C | 7.3 |

---

Below, each entry is listed with its recorded Ratio IC50.
Organism: Homo sapiens
Experiment: Ratio of compound IC50 to (4aR,4bS,6aS,7S,9aS,9bS,11aR)-N,N-diethyl-1,4a,6a-trimethyl-2-oxohexadecahydro-1H-indeno[5,4-f]quinoline-7-carboxamide IC50 for human steroid 5alpha-reductase
value.type: Ratio IC50

| structure.notation | value.type | test.result |
| --- | --- | --- |
| CCN(CC)C(=O)[C@H]1CC[C@H]2[C@@H]3CC[C@H]4N(C)C(=O)[C@@H]5O[C@@H]5[C@]4(C)[C@H]3CC[C@]12C | Ratio IC50 | 63 |
| CN1C(=O)CC[C@]2(C)[C@H]3CC[C@]4(C)[C@@H](C(=O)SC(C)(C)C)CC[C@H]4[C@@H]3CC[C@@H]12 | Ratio IC50 | 47 |
| CCN(CC)C(=O)[C@H]1CC[C@H]2[C@@H]3CC[C@H]4N(C)C(=O)[C@@H](F)C[C@]4(C)[C@H]3CC[C@]12C | Ratio IC50 | 5 |
| CN1C(=O)CC[C@]2(C)[C@H]3CC[C@]4(C)[C@@H](C(=O)NC(C)(C)CO)CC[C@H]4[C@@H]3CC[C@@H]12 | Ratio IC50 | 2 |

Cited source: ChEMBL document CHEMBL3046716
